# Test Summary: Thermodynamic solubility at pH 7.4
# Assay type: physicochemical
# Conditions: phosphate buffer, 25 °C, pH 7.4, aqueous buffer, thermodynamic from solid, pH 7.4, mean of 4 injections; read-out: Conc. Mean
Where a name gives a salt, the structure may show the parent alone.
Parameter: solubility thermodynamic at 24 h (µg/mL)
One number for each entry, in µg/mL.

What does the record list as solubility thermodynamic at 24 h for CC(=O)N1CCN(CCOCc2ccn(-c3ccc(F)c(F)c3)n2)CC1 [Example 1, hydrochloride] ?
4100

====

# Test Summary: Pharmacokinetics after single oral administration to male Wistar rat
# Type: in vivo
# Conditions: male, Wistar, rat, plasma, po, 10 mg/kg, rat R2, 5 h, 10 mg/kg oral
Structures can show the parent of a compound that is named as a salt.
Parameter: concentration at 5 h (ng/mL)
One number for each entry, in ng/mL.

What does the record list as concentration at 5 h for CC(=O)N1CCN(CCOCc2ccn(-c3ccc(F)c(F)c3)n2)CC1 [Example 1, hydrochloride] ?
46.9

====

# Test Summary: Pharmacokinetics after single oral administration to male Wistar rat
# Assay type: in vivo
# Conditions: male, Wistar, rat, plasma, po, 10 mg/kg, mean of 2 rats, 10 mg/kg oral; read-out: tmax
Where a name gives a salt, the structure may show the parent alone.
Parameter: tmax (min)
Answers are plain numbers, in min.

What does the record list as tmax for CC(=O)N1CCN(CCOCc2ccn(-c3ccc(F)c(F)c3)n2)CC1 [Example 1, hydrochloride] ?
36

====

# Test Summary: Pharmacokinetics after single oral administration to male Wistar rat
# Assay type: in vivo
# Conditions: male, Wistar, rat, plasma, oral, 10 mg/kg, mean of 2 rats, 10 mg/kg oral; mean AUC after i.v. administration used for calculation; read-out: F (oral bioavailability)
Structures can show the parent of a compound that is named as a salt.
Parameter: bioavailability (%)
Answers are plain numbers, in %.

What does the record list as bioavailability for CC(=O)N1CCN(CCOCc2ccn(-c3ccc(F)c(F)c3)n2)CC1 [Example 1, hydrochloride] ?
60

====

# Test Summary: Thermodynamic solubility at pH 7.4
# Assay type: physicochemical
# Conditions: phosphate buffer, 25 °C, pH 7.4, aqueous buffer, thermodynamic from solid, pH=7.4, 24 hours at 25° C., completely dissolved; read-out: thermodynamic solubility
# Description: General protocol for thermodynamic solubility at pH 7.4 and pH 2 are described. • A) Thermodynamic Solubility at pH 7.4 Phosphate buffer at pH 7.4 (25 mM) was prepared as follows: A solution 25 mM of Na2HPO4.12H2O (for 1 L of water, weight 8.96 g) was prepared A solution 25 mM de KH2PO4 (for 1 L of water weight 3.4 g) was prepared. Disodium phosphate solution (812 mL) and potassium phosphate (182 mL) solution were mixed and pH checked to be 7.4. […]
Counter-ions that a name gives are not always drawn.
Parameter: solubility thermodynamic at 24 h

What does the record list as solubility thermodynamic at 24 h for CC(=O)N1CCN(CCOCc2ccn(-c3ccc(F)c(F)c3)n2)CC1 [Example 1, hydrochloride] ?
> 4000 µg/mL

====

# Test Summary: pKa of the free base compound
# Assay type: physicochemical
Parameter: pKa
Numbers only.

What does the record list as pKa for `CC(=O)N1CCN(CCOCc2ccn(-c3ccc(F)c(F)c3)n2)CC1` ?
6.37

====

# Test Summary: Pharmacokinetics after single oral administration to male Wistar rat
# Assay type: in vivo
# Conditions: male, Wistar, rat, plasma, po, 10 mg/kg, mean of 2 rats, 10 mg/kg oral; read-out: AUC
Structures can show the parent of a compound that is named as a salt.
Parameter: AUC

What does the record list as AUC for CC(=O)N1CCN(CCOCc2ccn(-c3ccc(F)c(F)c3)n2)CC1 [Example 1, hydrochloride] ?
~2600 ng·h/mL

====

# Test Summary: Pharmacokinetics after single oral administration to male Wistar rat
# Type: in vivo
# Conditions: male, Wistar, rat, plasma, po, 10 mg/kg, animal 1, 10 mg/kg oral; read-out: tmax
Where a name gives a salt, the structure may show the parent alone.
Parameter: tmax (min)
One number for each entry, in min.

What does the record list as tmax for CC(=O)N1CCN(CCOCc2ccn(-c3ccc(F)c(F)c3)n2)CC1 [Example 1, hydrochloride] ?
15

====

# Test Summary: Pharmacokinetics after single oral administration to male Wistar rat
# Assay type: in vivo
# Conditions: male, Wistar, rat, plasma, po, 10 mg/kg, mean of 2 rats, 10 mg/kg oral; read-out: Cmax (peak plasma concentration)
# Description: The pharmacokinetics of Example 1 and 2 were tested using the following protocol: Male Wistar rats weighing 250 to 300 g (±20) supplied by Harlan were used. Water and food was available ad libitum throughout the study. Administration and Sample Collection Two rats (R1 and R2) were used in the pharmacokinetic oral studies. […] Tested compound concentration in plasma samples was determined by least-squares linear regression using a ten-point calibration curve. […]
Structures can show the parent of a compound that is named as a salt.
Parameter: Cmax

What does the record list as Cmax for CC(=O)N1CCN(CCOCc2ccn(-c3ccc(F)c(F)c3)n2)CC1 [Example 1, hydrochloride] ?
~1000 ng/mL

====

# Test Summary: Pharmacokinetics after single oral administration to male Wistar rat
# Format: in vivo
# Conditions: male, Wistar, rat, plasma, po, 10 mg/kg, rat R1, 0.5 h, 10 mg/kg oral
Counter-ions that a name gives are not always drawn.
Parameter: concentration at 0.5 h (ng/mL)
Numbers only, in ng/mL.

What does the record list as concentration at 0.5 h for CC(=O)N1CCN(CCOCc2ccn(-c3ccc(F)c(F)c3)n2)CC1 [Example 1, hydrochloride] ?
1300

====

# Test Summary: Pharmacokinetics after single oral administration to male Wistar rat
# Assay type: in vivo
# Conditions: male, Wistar, rat, plasma, po, 10 mg/kg, animal 2, 10 mg/kg oral; read-out: Cmax
Counter-ions that a name gives are not always drawn.
Parameter: Cmax (ng/mL)
Numbers only, in ng/mL.

What does the record list as Cmax for CC(=O)N1CCN(CCOCc2ccn(-c3ccc(F)c(F)c3)n2)CC1 [Example 1, hydrochloride] ?
1050

====

# Test Summary: Pharmacokinetics after single oral administration to male Wistar rat
# Format: in vivo
# Conditions: male, Wistar, rat, plasma, po, 10 mg/kg, animal 2, 10 mg/kg oral; read-out: AUC
Where a name gives a salt, the structure may show the parent alone.
Parameter: AUC (ng·h/mL)
Give bare numbers, in ng·h/mL.

What does the record list as AUC for CC(=O)N1CCN(CCOCc2ccn(-c3ccc(F)c(F)c3)n2)CC1 [Example 1, hydrochloride] ?
2340
